- testSystem: Bcl-xL, Q07817
- Sequence (Q07817 1-209): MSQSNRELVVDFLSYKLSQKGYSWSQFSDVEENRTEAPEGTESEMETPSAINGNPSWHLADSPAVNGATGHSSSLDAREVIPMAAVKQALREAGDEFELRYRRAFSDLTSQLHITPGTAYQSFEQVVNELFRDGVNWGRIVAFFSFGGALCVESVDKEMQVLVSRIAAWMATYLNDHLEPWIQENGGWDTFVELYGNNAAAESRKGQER
- assaySummary: peptide SPOT array, c-Myc-tagged receptor at 1 uM or 100 nM, anti-c-Myc-Cy3
SPOT signal as a fraction of Bim BH3's signal on the same receptor and array values by entry
Give the figure by itself; no unit, no explanation.

In: Any idea what its SPOT signal as a fraction of Bim BH3's signal on the same receptor and array is? The binder is QASREAGAAADRNVAQRLFENYQTQS [CCDC68]
Out: 0.05

In: Any idea what its SPOT signal as a fraction of Bim BH3's signal on the same receptor and array is? The binder is HRTSNVLTLSDKRFANFSGGKITKDV [USP36]
Out: 1.11

In: Any idea what its SPOT signal as a fraction of Bim BH3's signal on the same receptor and array is? The binder is NKDGKSVSNRDRRLSDNCGGKVLSIT [KIAA0430]
Out: 0.22

In: Any idea what its SPOT signal as a fraction of Bim BH3's signal on the same receptor and array is? The binder is "QLSKPGAALYLQSIGEGFKEAVQYVL"
Out: 0.02

In: Any idea what its SPOT signal as a fraction of Bim BH3's signal on the same receptor and array is? The binder is "QLSKPGAALYLQSILEGFKEAVQYVL"
Out: 0.03

In: Any idea what its SPOT signal as a fraction of Bim BH3's signal on the same receptor and array is? The binder is HTALENCASLLCIRLDELQEALTSHC [MYO3A]
Out: 0.05

In: Any idea what its SPOT signal as a fraction of Bim BH3's signal on the same receptor and array is? The binder is LDYHRQAVQILDELAEKLKRRMREAS [SH3GL1]
Out: 0.05
